# melting point per entry

Some solved entries appear below for comparison.
Data request: Quick one: melting point of COc1cc2c(Oc3ccc(NC(=O)c4nn(-c5ccc(Br)cc5F)ccc4=O)cc3F)ccnc2cc1OCCCN1CCC(C)CC1 [Compound 43] ?
Data returned: 115.8 to 117.3 °C

Data request: Recorded melting point of COc1cc2c(Oc3ccc(NC(=O)c4nn(-c5ccc(F)c(Cl)c5)ccc4=O)cc3F)ccnc2cc1OCCCN1CCOCC1 [Compound 26] , please.
Data returned: 138.1 to 140.6 °C

Data request: What value of measured melting point is listed for COc1cc2c(Oc3ccc(NC(=O)c4nn(-c5ccc(Br)cc5)ccc4=O)cc3F)ccnc2cc1OCCCN1CCCCC1 [Compound 32] ?
Data returned: 141.3 to 143.4 °C

Data request: Reported melting point for COc1ccc(-n2ccc(=O)c(C(=O)Nc3ccc(Oc4ccnc5cc(OCCCN6CCCCC6)c(OC)cc45)c(F)c3)n2)cc1 [Compound 33] : what is it?
Data returned: 105.4 to 106.5 °C

Data request: Quick check: melting point of COc1cc2c(Oc3ccc(NC(=O)c4nn(-c5ccc(F)cc5)ccc4=O)cc3F)ccnc2cc1OCCCN1CCCCC1 [Compound 30] ?
Data returned: 149.4 to 151.1 °C

***
Data request: For COc1cc2c(Oc3ccc(NC(=O)c4nn(-c5ccccc5)ccc4=O)cc3F)ccnc2cc1OCCCN1CCCCC1 [Compound 37] , what is its reported melting point?
Data returned: 152.3 to 153.1 °C

Data request: For the molecule shown here, COc1cc2c(Oc3ccc(NC(=O)c4nn(-c5ccc(Br)cc5F)ccc4=O)cc3F)ccnc2cc1OCCCN1CCOCC1 [Compound 27] , give the reported melting point.
Data returned: 113.7 to 115.1 °C

Data request: Please report the recorded melting point for COc1cc2c(Oc3ccc(NC(=O)c4nn(-c5ccc(Cl)cc5)ccc4=O)cc3F)ccnc2cc1OCCCN1CCCCC1 [Compound 31] .
Data returned: 158.2 to 159.6 °C

Data request: Given the molecule COc1cc2c(Oc3ccc(NC(=O)c4nn(-c5ccc(Cl)c(C(F)(F)F)c5)ccc4=O)cc3F)ccnc2cc1OCCCN1CCN(C)CC1 [Compound 52] , what is its reported melting point?
Data returned: 211.7 to 212.6 °C

Data request: Given COc1cc2c(Oc3ccc(NC(=O)c4nn(-c5ccc(Br)cc5)ccc4=O)cc3F)ccnc2cc1OCCCN1CCC(C)CC1 [Compound 40] , state its recorded melting point.
Data returned: 220.7 to 221.4 °C

Data request: Given the entry COc1cc2c(Oc3ccc(NC(=O)c4nn(-c5ccc(Cl)c(C(F)(F)F)c5)ccc4=O)cc3F)ccnc2cc1OCCCN1CCC(C)CC1 [Compound 44] , report its measured melting point.
Data returned: 137.7 to 138.6 °C

Data request: melting point lookup needed for COc1cc2c(Oc3ccc(NC(=O)c4nn(-c5ccc(F)cc5)ccc4=O)cc3F)ccnc2cc1OCCCN1CCOCC1 [Compound 22] , thanks.
Data returned: 152.3 to 153.5 °C

Data request: Data request, read-out melting point, for COc1ccc(-n2ccc(=O)c(C(=O)Nc3ccc(Oc4ccnc5cc(OCCCN6CCC(C)CC6)c(OC)cc45)c(F)c3)n2)cc1 [Compound 41]
Data returned: 145.1 to 146.3 °C

Data request: Find the recorded melting point belonging to COc1cc2c(Oc3ccc(NC(=O)c4nn(-c5ccccc5)ccc4=O)cc3F)ccnc2cc1OCCCN1CCOCC1 [Compound 29] and report it.
Data returned: 118.7 to 119.8 °C

Sourced from paper PMC6099740
